# Assay summary: Solubility in various media (equilibration on a shaking bed for 24 hours, HPLC)
# Assay type: physicochemical
# Test parameters: Tris buffer, pH 7 (1.0 M), pH 7.2, aqueous buffer, thermodynamic from solid, Tris buffer, pH 7 (1.0M); pH 7.20; ambient, 24 h; read-out: Solubility
Reported metric: solubility at 24 h

>>> result("CCNC(=O)Nc1nc2cc(-c3cncc(F)c3)cc(-c3ncccn3)c2[nH]1 [Form IA]")
"< 1 µg/mL"

----------
# Assay summary: Solubility in various media (equilibration on a shaking bed for 24 hours, HPLC)
# Type: physicochemical
# Test parameters: PEG 400, pH 7.54, organic solvent or mixture, thermodynamic from solid, PEG 400; pH 7.54; ambient, 24 h; read-out: Solubility
Reported metric: solubility at 24 h

>>> result("CCNC(=O)Nc1nc2cc(-c3cncc(F)c3)cc(-c3ncccn3)c2[nH]1 [Form IA]")
"1620 µg/mL"

----------
# Assay summary: Solubility in various media (equilibration on a shaking bed for 24 hours, HPLC)
# Type: physicochemical
# Test parameters: 10% Cremophor in water, aqueous with cosolvent or surfactant or cyclodextrin, thermodynamic from solid, 10% Cremophor in water; ambient, 24 h; read-out: Solubility
Reported metric: solubility at 24 h

>>> result("CCNC(=O)Nc1nc2cc(-c3cncc(F)c3)cc(-c3ncccn3)c2[nH]1 [Form IA]")
"80 µg/mL"

----------
# Assay summary: Solubility in various media (equilibration on a shaking bed for 24 hours, HPLC)
# Format: physicochemical
# Test parameters: 0.05 M potassium phosphate monobasic-sodium hydroxide buffer, pH 7, aqueous buffer, thermodynamic from solid, Potassium phosphate monobasic-sodium hydroxide, pH 7; read-out: Solubility in 0.05M Buffers at Different pH
Reported metric: solubility at 24 h

>>> result("CCNC(=O)Nc1nc2cc(-c3cncc(F)c3)cc(-c3ncccn3)c2[nH]1 [Form IA]")
"< 1 µg/mL"

----------
# Assay summary: Solubility in various media (equilibration on a shaking bed for 24 hours, HPLC)
# Format: physicochemical
# Test parameters: 0.05 M potassium biphthalate-sodium hydroxide buffer, pH 3, aqueous buffer, thermodynamic from solid, Potassium biphthalate sodium hydroxide, pH 3; read-out: Solubility in 0.05M Buffers at Different pH
Reported metric: solubility at 24 h (µg/mL)

>>> quantitative_readout("CCNC(=O)Nc1nc2cc(-c3cncc(F)c3)cc(-c3ncccn3)c2[nH]1 [Form IA]")
70

----------
# Assay summary: Solubility in various media (equilibration on a shaking bed for 24 hours, HPLC)
# Assay type: physicochemical
# Test parameters: 10% Cremophor EL, pH 6.48, aqueous with cosolvent or surfactant or cyclodextrin, thermodynamic from solid, 10% Cremophor EL; pH 6.48; ambient, 24 h; read-out: Solubility
Reported metric: solubility at 24 h (µg/mL)

>>> quantitative_readout("CCNC(=O)Nc1nc2cc(-c3cncc(F)c3)cc(-c3ncccn3)c2[nH]1 [Form IA]")
66

----------
# Assay summary: Solubility in various media (equilibration on a shaking bed for 24 hours, HPLC)
# Format: physicochemical
# Test parameters: 10% Tween 80, pH 6.22, aqueous with cosolvent or surfactant or cyclodextrin, thermodynamic from solid, 10% Tween 80; pH 6.22; ambient, 24 h; read-out: Solubility
Reported metric: solubility at 24 h (µg/mL)

>>> quantitative_readout("CCNC(=O)Nc1nc2cc(-c3cncc(F)c3)cc(-c3ncccn3)c2[nH]1 [Form IA]")
67

----------
# Assay summary: Solubility in various media (equilibration on a shaking bed for 24 hours, HPLC)
# Assay type: physicochemical
# Test parameters: PBS, aqueous buffer, thermodynamic from solid, PBS (Phosphate Buffer Saline); ambient, 24 h; read-out: Solubility
Reported metric: solubility at 24 h

>>> result("CCNC(=O)Nc1nc2cc(-c3cncc(F)c3)cc(-c3ncccn3)c2[nH]1 [Form IA]")
"< 1 µg/mL"

----------
# Assay summary: Solubility in various media (equilibration on a shaking bed for 24 hours, HPLC)
# Format: physicochemical
# Test parameters: Miglyol 810, oil or lipid, thermodynamic from solid, Miglyol 810; ambient, 24 h; read-out: Solubility
Reported metric: solubility at 24 h (µg/mL)

>>> quantitative_readout("CCNC(=O)Nc1nc2cc(-c3cncc(F)c3)cc(-c3ncccn3)c2[nH]1 [Form IA]")
17

----------
# Assay summary: Solubility in various media (equilibration on a shaking bed for 24 hours, HPLC)
# Assay type: physicochemical
# Test parameters: 0.05 M potassium chloride-hydrochloric acid buffer, pH 1, simulated gastric fluid, thermodynamic from solid, Potassium chloride hydrochloric acid, pH 1; read-out: Solubility in 0.05M Buffers at Different pH
Reported metric: solubility at 24 h (µg/mL)

>>> quantitative_readout("CCNC(=O)Nc1nc2cc(-c3cncc(F)c3)cc(-c3ncccn3)c2[nH]1 [Form IA]")
2240

----------
# Assay summary: Solubility in various media (equilibration on a shaking bed for 24 hours, HPLC)
# Assay type: physicochemical
# Test parameters: ethanol, pH 6.71, organic solvent or mixture, thermodynamic from solid, Ethanol (first entry); pH 6.71; ambient, 24 h; read-out: Solubility
Reported metric: solubility at 24 h (µg/mL)

>>> quantitative_readout("CCNC(=O)Nc1nc2cc(-c3cncc(F)c3)cc(-c3ncccn3)c2[nH]1 [Form IA]")
56
